# target_entity: Src (p60^c-src) (Homo sapiens)
# Construct: purchased Upstate (UBI)
# Sequence (P12931 whole entry): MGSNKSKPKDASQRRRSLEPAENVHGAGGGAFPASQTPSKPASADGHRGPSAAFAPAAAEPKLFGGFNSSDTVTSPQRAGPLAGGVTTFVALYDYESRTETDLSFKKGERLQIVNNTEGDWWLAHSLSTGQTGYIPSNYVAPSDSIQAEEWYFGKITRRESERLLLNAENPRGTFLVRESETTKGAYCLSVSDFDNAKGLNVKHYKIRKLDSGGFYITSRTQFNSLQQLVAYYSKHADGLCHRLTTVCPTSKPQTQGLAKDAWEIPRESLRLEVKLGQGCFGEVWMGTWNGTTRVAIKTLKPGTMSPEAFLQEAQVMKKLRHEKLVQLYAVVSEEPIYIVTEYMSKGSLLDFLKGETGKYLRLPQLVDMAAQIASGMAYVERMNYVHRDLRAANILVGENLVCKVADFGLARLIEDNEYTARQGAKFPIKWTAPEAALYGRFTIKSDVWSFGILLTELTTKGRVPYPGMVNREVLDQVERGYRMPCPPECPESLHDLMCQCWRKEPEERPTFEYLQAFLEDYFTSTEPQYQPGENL
# procedure_details: SRC-Inhibitor-Assay (homogenous time-resolved fluorescence kinase assay)
# Format: biochemical
# run_conditions: ATP 5 μM; enzyme 2.5 U/mL; pre-incubated 15 min at 15° C.; read-out: IC50 (μM) - Enzyme Inhibition Assay, Src
attribute_measured: IC50

A selection of reference data follows.
{"columns": ["compound", "target_entity", "endpoint_result"],
 "data": [
  ["CCN(CC)CCc1cccc(Nc2ncc3c(n2)N(c2cccc(C(N)=O)c2)C(=O)N(c2ccc(OC)cc2)C3C)c1 (racemic)", "Src (p60^c-src) (Homo sapiens)", "< 1 µM"],
  ["COc1ccc(N2C(=O)N(c3cccc(C(N)=O)c3)c3nc(Nc4cccc(CCN5CCN(C)CC5)c4)ncc3C2C)cc1 (racemic)", "Src (p60^c-src) (Homo sapiens)", "< 1 µM"]
]}

## Task Form entry - test system: Src (p60^c-src) (Homo sapiens); read-out: IC50; compound: COc1ccc(N2C(=O)N(c3cccc(C#N)c3)c3nc(Nc4cccc(CCN5CCN(C)CC5)c4)ncc3C2C)cc1 (racemic)
## Result < 1 µM

* * *

Reported melting point values are given for each entry in this list.

A selection of reference data follows.
{"columns": ["molecule", "endpoint_result"],
 "data": [
  ["COc1ccc(N2C(=O)N(c3cccc(C#N)c3)c3nc(Nc4cccc(CCO)c4)ncc3C2C)cc1 (racemic)", "195 to 200 °C"],
  ["COc1ccc(N2C(=O)N(c3cccc(C(N)=O)c3)c3nc(Nc4cccc(CCN(C)C)c4)ncc3C2C)cc1 (racemic)", "215 to 230 °C"]
]}

## Task Given the entry CCN(CC)CCc1cccc(Nc2ncc3c(n2)N(c2cccc(C(N)=O)c2)C(=O)N(c2ccc(OC)cc2)C3C)c1 (racemic) , report its measured melting point.
## Result 170 to 175 °C

## Task Same lookup for COc1ccc(N2C(=O)N(c3cccc(C#N)c3)c3nc(Nc4cccc(CCN5CCN(C)CC5)c4)ncc3C2C)cc1 (racemic) , please.
## Result 134 to 155 °C

* * *

Reported melting point values are given for each entry in this list.

A selection of reference data follows.
{"columns": ["compound", "endpoint_result"],
 "data": [
  ["COc1ccc(N2C(=O)N(c3cccc(C(N)=O)c3)c3nc(Nc4cccc(CCN5CCN(C)CC5)c4)ncc3C2C)cc1 (racemic) [Example 10]", "243 to 251 °C"],
  ["CCN(CC)CCc1cccc(Nc2ncc3c(n2)N(c2cccc(C#N)c2)C(=O)N(c2ccc(OC)cc2)C3C)c1 (racemic) [Example 5b]", "128 to 145 °C"]
]}

## Task Given the entry COc1ccc(N2C(=O)N(c3cccc(C#N)c3)c3nc(Nc4cccc(CCN(C)C)c4)ncc3C2C)cc1 (racemic) [Example 6] , report its measured melting point.
## Result 120 to 135 °C
